Molecular target: T1, human IL-36α (R&D Systems cat#6995-IL-010/CF) (human, UniProt Q9UHA7 6-158)
T1 sequence (looked up): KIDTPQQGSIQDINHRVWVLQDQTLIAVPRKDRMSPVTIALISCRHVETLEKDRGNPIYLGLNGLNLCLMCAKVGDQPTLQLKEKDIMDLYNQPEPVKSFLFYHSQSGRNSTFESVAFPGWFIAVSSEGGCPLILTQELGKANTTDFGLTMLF
Assay: cell-based or functional assay
ASSAY_ENDPOINT: IC50 of IL-8 secretion (AlphaLISA), HaCaT, 10 nM human IL-36α (nM)

binder="144L249B LV9 HV11 (antibody, V domains shown, Humanized) VH: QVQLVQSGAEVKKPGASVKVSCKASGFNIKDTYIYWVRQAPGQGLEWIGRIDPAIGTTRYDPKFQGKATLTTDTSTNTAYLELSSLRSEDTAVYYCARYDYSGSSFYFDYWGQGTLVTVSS VL: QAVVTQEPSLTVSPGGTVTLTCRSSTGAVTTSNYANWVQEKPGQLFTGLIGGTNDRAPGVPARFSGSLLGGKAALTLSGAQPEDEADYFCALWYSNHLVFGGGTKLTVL" recorded_measurement=7.68
binder="144L249B LV9 HV10b (antibody, V domains shown, Humanized) VH: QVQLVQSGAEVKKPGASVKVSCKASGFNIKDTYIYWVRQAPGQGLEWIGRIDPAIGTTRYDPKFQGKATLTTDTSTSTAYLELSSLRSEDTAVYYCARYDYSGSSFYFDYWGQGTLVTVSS VL: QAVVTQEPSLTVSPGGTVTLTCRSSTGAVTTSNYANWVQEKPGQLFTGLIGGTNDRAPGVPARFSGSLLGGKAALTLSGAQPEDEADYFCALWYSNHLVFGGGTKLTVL" recorded_measurement=6.61
binder="144L249B LV7a HV11 (antibody, V domains shown, Humanized) VH: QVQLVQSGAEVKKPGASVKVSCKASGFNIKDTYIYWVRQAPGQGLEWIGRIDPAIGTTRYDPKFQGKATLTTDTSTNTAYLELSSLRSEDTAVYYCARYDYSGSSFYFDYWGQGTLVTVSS VL: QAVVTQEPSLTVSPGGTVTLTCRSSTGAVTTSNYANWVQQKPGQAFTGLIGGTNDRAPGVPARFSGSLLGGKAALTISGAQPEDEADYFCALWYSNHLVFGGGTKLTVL" recorded_measurement=9.2
binder="144L249B LV9 HV10c (antibody, V domains shown, Humanized) VH: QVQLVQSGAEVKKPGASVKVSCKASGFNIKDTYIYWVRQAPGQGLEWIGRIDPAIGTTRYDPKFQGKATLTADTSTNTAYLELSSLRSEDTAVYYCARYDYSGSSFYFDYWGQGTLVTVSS VL: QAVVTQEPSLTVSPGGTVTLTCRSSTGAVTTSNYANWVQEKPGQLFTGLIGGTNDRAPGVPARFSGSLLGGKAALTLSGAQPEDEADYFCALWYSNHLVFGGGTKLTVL" recorded_measurement=5.13
